The values you see were collected from patent US4987129A.

Test system: Escherichia coli ML4704
Procedure summary: minimum inhibitory concentration (MIC)
Format: cell-based
Test conditions: Escherichia coli ML4704; Tables 2A, 2B; read-out: MIC
Description: The minimum inhibitory concentration (MIC) of the compounds obtained in the above Examples were measured according to the standard method of Japan Society of Chemotherapy.
Quantity: MIC (µg/mL)
The answer is to be given in µg/mL; state only the numeric part.

Look over these answered cases.
So, CON=C(C(=O)NC1C(=O)N2C(C(=O)O)=C(CSc3cc(CO)nc4nc(C)nn34)CSC12)c1csc(N)n1 (stereo not drawn) ? Its MIC was 0.05

So, CON=C(C(=O)NC1C(=O)N2C(C(=O)O)=C(CSc3cc(C(=O)O)nc4nc(CO)nn34)CSC12)c1csc(N)n1 (stereo not drawn) ? Its MIC was 0.1

***
So, COCc1nc2nc(C)cc(SCC3=C(C(=O)O)N4C(=O)C(NC(=O)C(=NOC(C)(C)C(=O)NNC(=O)c5ccc(O)c(O)c5)c5csc(N)n5)C4SC3)n2n1 (stereo not drawn) ? Its MIC was 0.025

###

Test system: Escherichia coli ML4704
Procedure summary: minimum inhibitory concentration (MIC)
Assay type: cell-based
Test conditions: Escherichia coli ML4704; Tables 2A, 2B; read-out: MIC
Quantity: MIC (µg/mL)
The answer is to be given in µg/mL; state only the numeric part.

Recorded MIC for COCc1nc2nc(C)cc(SCC3=C(C(=O)O)N4C(=O)C(NC(=O)C(=NOC(C)(C)C(=O)NN)c5csc(N)n5)C4SC3)n2n1 (centres unmarked) on Escherichia coli ML4704 was 0.2

Recorded MIC for CON=C(C(=O)NC1C(=O)N2C(C(=O)O)=C(CSc3cc(C)nc4nc(CO)nn34)CSC12)c1csc(N)n1 (centres unmarked) on Escherichia coli ML4704 was 0.025

Recorded MIC for Cc1cc(SCC2=C(C(=O)O)N3C(=O)C(NC(=O)C(=NOC(C)(C)C(=O)NN)c4csc(N)n4)C3SC2)n2nc(CO)nc2n1 (centres unmarked) on Escherichia coli ML4704 was 0.2

Recorded MIC for COCc1nc2nc(C)cc(SCC3=C(C(=O)O)N4C(=O)C(NC(=O)C(=NOC)c5csc(N)n5)C4SC3)n2n1 (centres unmarked) on Escherichia coli ML4704 was 0.05

# context switch: different molecule, same MIC
Recorded MIC for Cc1cc(SCC2=C(C(=O)O)N3C(=O)C(NC(=O)C(=NOC(C)(C)C(=O)NNC(=O)c4ccc(O)c(O)c4)c4csc(N)n4)C3SC2)n2nc(CO)nc2n1 (centres unmarked) on Escherichia coli ML4704 was 0.012

###

System: Serratia marcescens GN10857
Quantity: log10 of MIC (log10 of the value in µg/mL)
Reminder: these figures are log10 of reported MIC, in µg/mL before transformation.

Look over these answered cases.
So, Cc1nc2nc(CO)cc(SCC3=C(C(=O)[O-])N4C(=O)C(NC(=O)C(=NOC(C)(C)C(=O)NNC(=O)c5ccc(O)c(O)c5)c5csc(N)n5)[C@H]4SC3)n2n1.[Na+] (some centres unmarked) [Example 37] ? Its log10 of MIC was -0.41

So, CC(C)(ON=C(C(=O)NC1C(=O)N2C(C(=O)O)=C(CSc3cc(C(=O)O)nc4nc(CO)nn34)CSC12)c1csc(N)n1)C(=O)NNC(=O)c1ccc(O)c(O)c1 (centres unmarked) [Example 30] ? Its log10 of MIC was -0.11

So, CC(C)(ON=C(C(=O)NC1C(=O)N2C(C(=O)[O-])=C(CSc3cc(CO)nc4nc(CO)nn34)CS[C@H]12)c1csc(N)n1)C(=O)NNC(=O)c1ccc(O)c(O)c1.[Na+] (some centres unmarked) [Example 42] ? Its log10 of MIC was -0.41

***
So, COCc1nc2nc(C)cc(SCC3=C(C(=O)O)N4C(=O)C(NC(=O)C(=NOC(C)(C)C(=O)NNC(=O)c5ccc(O)c(O)c5)c5csc(N)n5)C4SC3)n2n1 (centres unmarked) [Example 24] ? Its log10 of MIC was -0.41

So, CON=C(C(=O)NC1C(=O)N2C(C(=O)O)=C(CSc3cc(CO)nc4nc(C)nn34)CSC12)c1csc(N)n1 (centres unmarked) [Example 38] ? Its log10 of MIC was 1.40

So, Cc1cc(SCC2=C(C(=O)O)N3C(=O)C(NC(=O)C(=NOC(C)(C)C(=O)NN)c4csc(N)n4)C3SC2)n2nc(CO)nc2n1 (centres unmarked) [Example 43] ? Its log10 of MIC was 1.70

So, CON=C(C(=O)NC1C(=O)N2C(C(=O)O)=C(CSc3cc(C(=O)O)nc4nc(CO)nn34)CSC12)c1csc(N)n1 (centres unmarked) [Example 31] ? Its log10 of MIC was 1.40

So, Cc1cc(SCC2=C(C(=O)O)N3C(=O)C(NC(=O)C(=NOC(C)(C)C(=O)O)c4csc(N)n4)[C@H]3SC2)n2nc(CO)nc2n1 (some centres unmarked) [Example 20] ? Its log10 of MIC was 1.10
